Tested on: ACHN renal
assay.notes: NCI tumour cell line growth inhibition, 48 h
Provide the reported GI50 of each item.

For each listed entry, give its GI50.
1. CC(C)=CCc1c2c(c(O)c3c1O[C@]14C(=C[C@@H]5C[C@H]1C(C)(C)O[C@@]4(C/C=C(/C)C(=O)O)C5=O)C3=O)CC(O)C(C)(C)O2 (some centres undefined)
2. CCN(CC)c1ccc(/C=N/NC(=O)c2ccc(NS(C)(=O)=O)cc2)cc1
3. N#Cc1c(NC(=O)c2ccc(F)c(Cl)c2)sc2c1CCC(=O)C2
4. [Cl][Ru].c1ccc(-c2cccc(-c3ccccn3)n2)nc1.c1ccc(-c2ccnc3c2ccc2c(-c4ccccc4)ccnc23)cc1

A)
1: 27.7 µM; 2: 0.656 µM; 3: 0.349 µM; 4: 21.2 µM
